Test: BBB integrity: vascular volume (V vasc) of [14C]sucrose after i.p. injection
Assay type: in vivo, Swiss mice
Conditions: Swiss, mouse, brain/blood, ip, 0.31 MBq/kg, mice at P30; 5 min post i.p. injection; read-out: Vv, Median
recorded-endpoint: Kp at 5 min

Summary for this compound, OC[C@H]1O[C@@](CO)(O[C@H]2O[C@H](CO)[C@@H](O)[C@H](O)[C@H]2O)[C@@H](O)[C@@H]1O [14C-Sucrose, sucrose] : Kp at 5 min is 0.0292

----------
Test: BBB integrity: vascular volume (V vasc) of [14C]sucrose after i.p. injection
Format: in vivo, Swiss mice
Conditions: Swiss, mouse, brain/blood, ip, 0.31 MBq/kg, mice at P15; 5 min post i.p. injection; read-out: Vv, Median
recorded-endpoint: Kp at 5 min
Answers are plain numbers.

Summary for this molecule, OC[C@H]1O[C@@](CO)(O[C@H]2O[C@H](CO)[C@@H](O)[C@H](O)[C@H]2O)[C@@H](O)[C@@H]1O [14C-Sucrose, sucrose] : Kp at 5 min is 0.0256

----------
Assay: BBB integrity: vascular volume (V vasc) of [14C]sucrose after i.p. injection
Assay type: in vivo, Swiss mice
Conditions: Swiss, mouse, brain/blood, ip, 0.31 MBq/kg, mice at P30; 5 min post i.p. injection; brain/blood ratio; read-out: Vv, Mean
recorded-endpoint: Kp at 5 min
Give bare numbers.

Summary for this compound, OC[C@H]1O[C@@](CO)(O[C@H]2O[C@H](CO)[C@@H](O)[C@H](O)[C@H]2O)[C@@H](O)[C@@H]1O [14C-Sucrose, sucrose] : Kp at 5 min is 0.0279

----------
Experiment: BBB integrity: vascular volume (V vasc) of [14C]sucrose after i.p. injection
Format: in vivo, Swiss mice
Conditions: Swiss, mouse, brain/blood, ip, 0.31 MBq/kg, mice at P5; 5 min post i.p. injection; brain/blood ratio; read-out: Vv, Mean
recorded-endpoint: Kp at 5 min
Answers are plain numbers.

Summary for this molecule, OC[C@H]1O[C@@](CO)(O[C@H]2O[C@H](CO)[C@@H](O)[C@H](O)[C@H]2O)[C@@H](O)[C@@H]1O [14C-Sucrose, sucrose] : Kp at 5 min is 0.0276

----------
Assay: BBB integrity: vascular volume (V vasc) of [14C]sucrose after i.p. injection
Format: in vivo, Swiss mice
Settings: Swiss, mouse, brain/blood, ip, 0.31 MBq/kg, mice at P15; 5 min post i.p. injection; brain/blood ratio; read-out: Vv, Mean
recorded-endpoint: Kp at 5 min
Give bare numbers.

Summary for this compound, OC[C@H]1O[C@@](CO)(O[C@H]2O[C@H](CO)[C@@H](O)[C@H](O)[C@H]2O)[C@@H](O)[C@@H]1O [14C-Sucrose, sucrose] : Kp at 5 min is 0.0272
